Exercise: state measured Spore Germination Rating for each of the compounds provided.
Test system: Erysiphe polygoni
Assay: Spore germination test
Type: cell-based
Settings: EP, 10 ppm, 48 hours

Recorded Spore Germination Rating (compound `CNC(=O)Nc1ccc(Oc2nsnc(Cl)c2=O)cc1` ): 4 (80-100)

// `O=c1c(Cl)nsnc1Oc1ccc([N+](=O)[O-])cc1` : Spore Germination Rating value = 4 (80-100)

The compound identified as `CC(=O)c1ccccc1Oc1nsnc(Cl)c1=O` registered its Spore Germination Rating at 2 (40-60)

====

Tested on: Erysiphe polygoni
Experiment: Spore germination test
Assay type: cell-based
Settings: EP, 40 ppm, 48 hours
parameter_measured: Spore Germination Rating

What the record says about O=c1c(Cl)nsnc1Oc1cc(Cl)cc(Cl)c1 [Compound 20] : Spore Germination Rating is 0 (0-10)

For reference, reported Spore Germination Rating for COc1ccc(Oc2nsnc(Cl)c2=O)cc1 [Compound 5] stands at 0 (0-10)

Sure, the documented Spore Germination Rating for Cc1ccc(Oc2nsnc(Cl)c2=O)c(C)c1 [Compound 23] is 1 (10-40)

What the record says about Cc1cccc(Oc2nsnc(Cl)c2=O)c1 [Compound 21] : Spore Germination Rating is 0 (0-10)
